// read-out IC50, gathered for PIK3CA (human) (UniProt P42336) from published studies

Worked examples follow.
Nc1nc2cc(-c3ccc4ncn(CCO)c(=O)c4c3)ccc2o1 :: < 100 nM
OCCn1cnc2c(-n3c(C(F)F)nc4ccccc43)nc(N3CCOCC3)nc21 :: > 100 nM
CC(=O)Nc1nc2cc(-c3ccc4nc(N)oc4c3)ccc2s1 :: < 100 nM

Reported IC50 (PIK3CA (human) (UniProt P42336)) for entry Cc1csc2nc(Cn3nc(I)c4c(N)ncnc43)n(-c3ccccc3C(C)C)c(=O)c12 is > 10000 nM

Reported IC50 (PIK3CA (human) (UniProt P42336)) for entry C[C@H](O)C(=O)N1CCN(c2nc3c(N4CCOCC4)nc(-c4cnc(N)nc4)nc3n2CC2CC2)C[C@@H]1C is 10 to 20 nM

Reported IC50 (PIK3CA (human) (UniProt P42336)) for entry CN1CCC(Nc2nc3cc(-c4ccc5ncc(C(=O)N6CCOCC6)n5c4)ccc3o2)CC1 is > 10000 nM

Reported IC50 (PIK3CA (human) (UniProt P42336)) for entry Nc1nc2cc(-c3ccc4ncc(C(=O)NCCOCCO)n4c3)ccc2o1 is < 1000 nM

Reported IC50 (PIK3CA (human) (UniProt P42336)) for entry COc1cccc2c(C)c([C@H](C)NC(=O)c3c(N)nn4cccnc34)n(-c3ccccc3)c(=O)c12 is > 10000 nM

Reported IC50 (PIK3CA (human) (UniProt P42336)) for entry CC(C)(C)c1ncc2c(n1)-c1sc(NC(=O)N3CC[C@@H](CN4CCOCC4)[C@H]3C(N)=O)nc1CC2 is 4 nM

----------
// read-out IC50, gathered for PIK3CA (human) (UniProt P42336) from published studies

Worked examples follow.
Nc1ncc(-c2nc(N3CCOCC3)c3ncc(-c4cccc(NC(=O)c5ccco5)c4)cc3n2)cn1 :: < 50 nM
COc1cc(-c2cccc(NS(=O)(=O)CCCF)c2F)cc2c(N3CCOCC3)nc(-c3cnc(N)cc3C(F)(F)F)nc12 :: 100 to 1000 nM
Nc1nc2cc(-c3ccc4ncc(C(=O)N5CC[C@H](O)C5)n4c3)ccc2o1 :: < 100 nM
C[C@H]1CCCN1C(=O)c1cnc2ccc(-c3ccc4oc(N)nc4c3)cn12 :: < 100 nM
COc1ccccc1-n1c(Cn2nc(C#C[C@@H](C)O)c3c(N)ncnc32)cc2cccc(C)c2c1=O :: > 10000 nM
C[C@H](Nc1ncnc2[nH]cnc12)c1cc2c(F)ccc(Cl)c2c(CCN2CCOCC2)n1 :: < 10000 nM

# context switch: different compound, same IC50
Reported IC50 (PIK3CA (human) (UniProt P42336)) for entry Cc1cccnc1-n1c(Cn2nc(-c3cc(O)cc(F)c3)c3c(N)ncnc32)cc2cccc(C)c2c1=O is > 10000 nM

----------
pIC50: −log10 of the molar value.
// read-out pIC50, gathered for PIK3CA (human) from published studies

Worked examples follow.
Cc1nc2ccc(-c3ccc4c(c3)CN(C(=O)N3CCN(c5ccccc5)CC3c3ccccc3)CCO4)cc2[nH]1 (stereo not drawn) :: 5.52 to 6.00
COC(=O)Nc1nc2ccc(-c3ccc4c(c3)CN(C(=O)N3CCC(CF)CC3)CCO4)cc2[nH]1 :: 6.70 to 7.12
CC(C)(C#N)c1ccc(-c2n[nH]c3cnc4ccc(-c5ccc6c(c5)CC=N6)cc4c23)cc1 :: < 7.70

Reported pIC50 (PIK3CA (human)) for entry CCN(CC)c1ncc2c(n1)-c1sc(NC(=O)N3C[C@@H](N(C)C)C[C@H]3C(N)=O)nc1CC2 is 7.63

Reported pIC50 (PIK3CA (human)) for entry COc1ncc(-c2cc(OCC3(C)COC3)c3ncnc(C)c3c2)cc1NS(=O)(=O)c1ccc(F)cc1F is 9.13
